# credit: patent US20200368361A1

// values below are reported Total Binding at 37° C.
assay-target: human MSR1 endogenously expressed on PMA-differentiated THP-1 cells (human) (UniProt P21757)
Sequence (P21757 whole entry): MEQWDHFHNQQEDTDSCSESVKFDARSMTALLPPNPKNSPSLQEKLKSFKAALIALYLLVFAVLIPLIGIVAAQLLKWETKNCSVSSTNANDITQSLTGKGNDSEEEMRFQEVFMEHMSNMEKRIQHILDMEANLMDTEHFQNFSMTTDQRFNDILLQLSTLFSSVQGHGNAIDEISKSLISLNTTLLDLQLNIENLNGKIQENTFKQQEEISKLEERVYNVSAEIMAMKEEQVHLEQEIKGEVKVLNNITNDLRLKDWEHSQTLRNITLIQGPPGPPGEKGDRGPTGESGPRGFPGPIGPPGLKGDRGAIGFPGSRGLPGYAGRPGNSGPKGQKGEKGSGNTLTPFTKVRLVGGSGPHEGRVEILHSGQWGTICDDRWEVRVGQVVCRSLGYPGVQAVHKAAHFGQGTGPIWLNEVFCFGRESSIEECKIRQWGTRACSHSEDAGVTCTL
experimental-protocol: imaging of PMA-differentiated THP-1 cells, 10 ug/mL antibody, Alexa 488 secondary
The figure you give is taken to be in RFU; do not add the unit.

binder | Total Binding at 37° C. (RFU)
H1H27729P-N297Q (antibody, human IgG1, V domains shown) VH: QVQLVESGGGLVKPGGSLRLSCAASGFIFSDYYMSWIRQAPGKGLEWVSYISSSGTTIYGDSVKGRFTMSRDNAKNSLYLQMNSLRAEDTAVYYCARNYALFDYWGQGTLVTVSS VL: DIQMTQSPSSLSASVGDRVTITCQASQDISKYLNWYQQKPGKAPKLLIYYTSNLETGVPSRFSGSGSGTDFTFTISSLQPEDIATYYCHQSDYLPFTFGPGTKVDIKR | 6.61e+06

Could you now consider this next binder?
Prompt: For the binder H1H27754P-N297Q (antibody, human IgG1, V domains shown) VH: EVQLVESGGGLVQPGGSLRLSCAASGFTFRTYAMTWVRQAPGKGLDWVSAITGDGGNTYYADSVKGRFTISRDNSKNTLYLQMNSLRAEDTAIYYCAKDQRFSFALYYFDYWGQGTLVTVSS VL: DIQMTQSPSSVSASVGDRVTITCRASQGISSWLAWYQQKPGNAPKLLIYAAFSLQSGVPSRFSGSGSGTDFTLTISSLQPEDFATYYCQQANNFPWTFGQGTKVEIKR , give its measured Total Binding at 37° C. value.
Response: 7.16e+06
